The following compounds are listed with their measured MIC values.
Test system: Staphylococcus aureus
Experiment: Minimum inhibitory concentration against Staphylococcus aureus ATCC 25923
Assay type: functional
metric: MIC (µg/mL)

INSERT INTO measurements (compound, unit_of_measurement, experimental_result) VALUES
  ('COc1c(N2C[C@@H]3CCCN[C@@H]3C2)c(F)cc2c(=O)c(C(=O)O)cn(C3CC3)c12', 'µg/mL', 0.06),
  ('COc1c(N2CCNC(C)C2)c(F)cc2c(=O)c(C(=O)O)cn(C3CC3)c12 (stereo not given)', 'µg/mL', 0.1),
  ('C[C@H]1CCc2c(N3CCC(O)CC3)c(F)cc3c(=O)c(C(=O)O)cn1c23.N=C(N)NCCC[C@H](N)C(=O)O.O.O.O.O', 'µg/mL', 0.03),
  ('C[C@H]1COc2c(N3CCN(C)CC3)c(F)cc3c(=O)c(C(=O)O)cn1c23.C[C@H]1COc2c(N3CCN(C)CC3)c(F)cc3c(=O)c(C(=O)O)cn1c23.O', 'µg/mL', 1),
  ('O=C(O)c1cn(C2CC2)c2cc(N3CCNCC3)c(F)cc2c1=O', 'µg/mL', 1);

----------
Lab note: pIC50 readings collected with DNA topoisomerase 4 subunit A (Staphylococcus aureus, UniProt P0C1U9) for the following molecules.
Sequence (P0C1U9 whole entry): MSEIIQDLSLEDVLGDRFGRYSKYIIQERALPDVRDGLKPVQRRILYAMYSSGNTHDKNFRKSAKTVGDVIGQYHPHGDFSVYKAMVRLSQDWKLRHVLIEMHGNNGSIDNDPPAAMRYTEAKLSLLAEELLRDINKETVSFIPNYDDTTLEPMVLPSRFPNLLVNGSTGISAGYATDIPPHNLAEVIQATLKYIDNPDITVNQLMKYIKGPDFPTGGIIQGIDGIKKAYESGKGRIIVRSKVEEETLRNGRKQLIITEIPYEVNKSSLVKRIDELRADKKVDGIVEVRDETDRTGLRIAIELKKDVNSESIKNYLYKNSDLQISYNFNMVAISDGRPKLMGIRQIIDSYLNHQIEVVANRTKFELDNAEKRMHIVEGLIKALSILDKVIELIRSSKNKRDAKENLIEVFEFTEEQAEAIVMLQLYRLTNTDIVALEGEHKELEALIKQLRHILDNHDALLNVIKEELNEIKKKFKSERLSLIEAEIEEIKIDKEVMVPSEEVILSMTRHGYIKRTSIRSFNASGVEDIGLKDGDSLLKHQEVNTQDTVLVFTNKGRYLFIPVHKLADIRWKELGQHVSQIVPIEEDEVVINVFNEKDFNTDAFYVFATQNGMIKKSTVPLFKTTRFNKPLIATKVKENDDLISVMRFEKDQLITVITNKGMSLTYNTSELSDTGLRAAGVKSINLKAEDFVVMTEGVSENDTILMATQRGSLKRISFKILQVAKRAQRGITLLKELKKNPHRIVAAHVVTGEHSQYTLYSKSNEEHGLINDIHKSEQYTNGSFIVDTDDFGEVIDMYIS
pIC50: −log10 of the molar value.
metric: pIC50

INSERT INTO assay_data (molecule, metric, sign_qualifier, experimental_result) VALUES
  ('CC1CCc2c(N3CCC(O)CC3)c(F)cc3c(=O)c(C(=O)O)cn1c23 (configuration not stated) [NADIFLOXACIN]', 'pIC50', '<', 4.56),
  ('C[C@H]1CCc2c(N3CCC(O)CC3)c(F)cc3c(=O)c(C(=O)O)cn1c23.N=C(N)NCCC[C@H](N)C(=O)O.O.O.O.O', 'pIC50', '=', 5.08);

----------
The following molecules are listed with their measured logD values.
Test: physchem
Conditions: octanol/water, pH 7.4
metric: logD

INSERT INTO assay_data (molecule, metric, experimental_result) VALUES
  ('N[C@@H]1[C@H]2CN(c3nc4c(cc3F)c(=O)c(C(=O)O)cn4-c3ccc(F)cc3F)C[C@@H]12', 'logD', 0.42),
  ('C[C@@H]1CN(c2c(F)c(N)c3c(=O)c(C(=O)O)cn(C4CC4)c3c2F)C[C@H](C)N1', 'logD', -0.02),
  ('CCn1cc(C(=O)O)c(=O)c2cc(F)c(N3CCNCC3)cc21', 'logD', -1),
  ('COc1c(N2CCNC(C)C2)c(F)cc2c(=O)c(C(=O)O)cn(C3CC3)c12 (centres undefined)', 'logD', -0.79);

----------
System: Staphylococcus aureus
Test: Minimum inhibitory concentration against methicillin susceptible Staphylococcus aureus before esterase action in rat serum
Format: functional
The label MET is reserved for MIC strictly under 0.5 µg/mL; NOT MET covers values equal to or above it.

INSERT INTO assay_data (compound, discrete_label) VALUES
  ('C[C@H]1CCc2c(N3CCC(O)CC3)c(F)cc3c(=O)c(C(=O)OCCN4CCCCC4)cn1c23', 'NOT MET'),
  ('COC(=O)c1cn2c3c(c(N4CCC(O)CC4)c(F)cc3c1=O)CC[C@@H]2C', 'NOT MET'),
  ('C[C@H]1CCc2c(N3CCC(OC(=O)[C@H](N)CCCN=C(N)N)CC3)c(F)cc3c(=O)c(C(=O)O)cn1c23', 'NOT MET'),
  ('CCOC(=O)COC(=O)c1cn2c3c(c(N4CCC(O)CC4)c(F)cc3c1=O)CC[C@@H]2C', 'NOT MET'),
  ('C[C@H]1CCc2c(N3CCC(OC(=O)[C@@H](N)CCC/N=C(\N)N[N+](=O)[O-])CC3)c(F)cc3c(=O)c(C(=O)O)cn1c23.O=C(O)C(F)(F)F', 'MET'),
  ('CO[C@@H]1C(OC2CCN(c3c(F)cc4c(=O)c(C(=O)O)cn5c4c3CC[C@@H]5C)CC2)O[C@@H](CO)[C@@H](O)[C@@H]1O (single isomer, unassigned)', 'MET');

----------
Experiment: Half life in phase I clinical studies at a i.v. dose of 600 mg
Format: ADME, organism-based
Conditions: human, in vivo, iv
metric: half-life (h)

INSERT INTO results (compound_structure, metric, experimental_result) VALUES
  ('C[C@H]1CCc2c(N3CCC(O)CC3)c(F)cc3c(=O)c(C(=O)O)cn1c23.N=C(N)NCCC[C@H](N)C(=O)O.O.O.O.O', 'half-life', 6);

----------
The following compounds are listed with their measured logD values.
Test: physchem
Conditions: octanol/water, pH 2
metric: logD

INSERT INTO results (compound, experimental_result) VALUES
  ('N[C@@H]1[C@H]2CN(c3nc4c(cc3F)c(=O)c(C(=O)O)cn4-c3ccc(F)cc3F)C[C@@H]12', -0.35),
  ('COc1c(N2CCNC(C)C2)c(F)cc2c(=O)c(C(=O)O)cn(C3CC3)c12 (centres undefined)', -1.14),
  ('C[C@@H]1CN(c2c(F)c(N)c3c(=O)c(C(=O)O)cn(C4CC4)c3c2F)C[C@H](C)N1', -0.86),
  ('CCn1cc(C(=O)O)c(=O)c2cc(F)c(N3CCNCC3)cc21', -1.46);

----------
Biological target: DNA gyrase (Staphylococcus aureus, UniProt P0A0K8+P20831)
Sequence (P0A0K8 whole entry): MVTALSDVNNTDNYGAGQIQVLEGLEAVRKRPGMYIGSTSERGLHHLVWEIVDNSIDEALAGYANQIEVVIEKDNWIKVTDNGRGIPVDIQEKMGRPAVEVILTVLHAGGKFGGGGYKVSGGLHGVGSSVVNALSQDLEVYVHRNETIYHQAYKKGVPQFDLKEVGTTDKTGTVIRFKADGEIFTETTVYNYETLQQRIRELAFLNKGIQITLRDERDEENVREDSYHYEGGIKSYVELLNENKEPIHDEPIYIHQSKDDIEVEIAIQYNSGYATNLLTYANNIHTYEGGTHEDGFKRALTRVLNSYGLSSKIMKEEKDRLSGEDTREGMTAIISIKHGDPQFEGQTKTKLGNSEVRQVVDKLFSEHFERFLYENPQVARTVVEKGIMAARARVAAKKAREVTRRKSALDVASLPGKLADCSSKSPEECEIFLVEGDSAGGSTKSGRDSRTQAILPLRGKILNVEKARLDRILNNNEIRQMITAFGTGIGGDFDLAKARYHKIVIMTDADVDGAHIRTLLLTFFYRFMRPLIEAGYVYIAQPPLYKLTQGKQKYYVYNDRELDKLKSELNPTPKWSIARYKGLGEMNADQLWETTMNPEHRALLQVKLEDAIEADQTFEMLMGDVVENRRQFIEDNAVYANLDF
Sequence (P20831 whole entry): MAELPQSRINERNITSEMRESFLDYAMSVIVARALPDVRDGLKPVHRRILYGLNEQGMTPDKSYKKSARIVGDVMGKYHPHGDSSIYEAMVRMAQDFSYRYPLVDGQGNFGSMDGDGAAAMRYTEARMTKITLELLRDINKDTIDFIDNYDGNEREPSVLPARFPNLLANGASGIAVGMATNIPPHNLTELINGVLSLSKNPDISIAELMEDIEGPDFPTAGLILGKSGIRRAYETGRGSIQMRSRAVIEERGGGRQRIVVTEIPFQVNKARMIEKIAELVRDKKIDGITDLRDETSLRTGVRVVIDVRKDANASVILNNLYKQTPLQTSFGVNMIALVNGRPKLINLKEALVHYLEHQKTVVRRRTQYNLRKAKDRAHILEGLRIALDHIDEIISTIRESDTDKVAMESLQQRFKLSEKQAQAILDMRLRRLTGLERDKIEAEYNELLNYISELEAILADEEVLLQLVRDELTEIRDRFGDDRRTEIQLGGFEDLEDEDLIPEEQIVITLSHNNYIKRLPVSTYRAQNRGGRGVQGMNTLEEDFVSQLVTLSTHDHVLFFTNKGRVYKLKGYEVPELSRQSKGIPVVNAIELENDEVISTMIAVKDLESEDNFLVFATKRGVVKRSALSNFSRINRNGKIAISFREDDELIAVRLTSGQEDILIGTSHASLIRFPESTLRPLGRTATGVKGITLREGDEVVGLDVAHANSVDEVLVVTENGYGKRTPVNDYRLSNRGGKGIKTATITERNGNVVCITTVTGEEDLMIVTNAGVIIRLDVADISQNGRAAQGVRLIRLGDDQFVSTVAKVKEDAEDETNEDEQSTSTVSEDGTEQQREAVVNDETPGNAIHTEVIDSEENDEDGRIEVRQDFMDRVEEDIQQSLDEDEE
metric: IC50 (µM)

INSERT INTO results (compound, metric, experimental_result) VALUES
  ('CC1CCc2c(N3CCC(O)CC3)c(F)cc3c(=O)c(C(=O)O)cn1c23 (stereo unspecified)', 'IC50', 27.7);

----------
Tested on: Mus musculus
Assay: Efficacy against mice infected with MRSA-33 upon s.c. administration
Format: functional
Conditions: sc
The following compounds are listed with their measured ED50 values.
metric: ED50 (mg/kg)

INSERT INTO measurements (compound, unit_of_measurement, sign_qualifier, experimental_result) VALUES
  ('C[C@H]1COc2c(N3CCN(C)CC3)c(F)cc3c(=O)c(C(=O)O)cn1c23.C[C@H]1COc2c(N3CCN(C)CC3)c(F)cc3c(=O)c(C(=O)O)cn1c23.O [LEVOFLOXACIN]', 'mg/kg', '>', 100),
  ('CC(=O)NC[C@H]1CN(c2ccc(N3CCOCC3)c(F)c2)C(=O)O1 [LINEZOLID]', 'mg/kg', '=', 3.1),
  ('COc1c(N2C[C@@H]3CCCN[C@@H]3C2)c(F)cc2c(=O)c(C(=O)O)cn(C3CC3)c12 [MOXIFLOXACIN]', 'mg/kg', '=', 66.1);

----------
System: Staphylococcus aureus
Assay: Minimum inhibitory concentration against methicillin susceptible Staphylococcus aureus before esterase action in rat serum
Format: functional
The following molecules are listed with their measured log10 of MIC values.
metric: log10 of MIC (log10 of the value in µg/mL)

INSERT INTO results (compound_structure, study_system, experimental_result) VALUES
  ('C[C@H]1CCc2c(N3CCC(O)CC3)c(F)cc3c(=O)c(C(=O)OCCN4CCOCC4)cn1c23', 'Staphylococcus aureus', -0.60),
  ('C[C@H]1CCc2c(N3CCC(O)CC3)c(F)cc3c(=O)c(C(=O)OCCN4CCCC4)cn1c23', 'Staphylococcus aureus', 0.00),
  ('C[C@H]1CCc2c(N3CCC(O)CC3)c(F)cc3c(=O)c(C(=O)OC4CCN(C)CC4)cn1c23', 'Staphylococcus aureus', 0.30),
  ('C[C@H]1CCc2c(N3CCC(OC(=O)[C@H](CCC/N=C(\N)N[N+](=O)[O-])NC(=O)[C@@H](N)CCC/N=C(\N)N[N+](=O)[O-])CC3)c(F)cc3c(=O)c(C(=O)O)cn1c23.O=C(O)C(F)(F)F', 'Staphylococcus aureus', -0.30),
  ('COC(=O)COC(=O)c1cn2c3c(c(N4CCC(O)CC4)c(F)cc3c1=O)CC[C@@H]2C', 'Staphylococcus aureus', 0.90);

----------
Test: physchem
metric: pKa

INSERT INTO results (compound_structure, experimental_result) VALUES
  ('N[C@@H]1[C@H]2CN(c3nc4c(cc3F)c(=O)c(C(=O)O)cn4-c3ccc(F)cc3F)C[C@@H]12', 8.13);

----------
Assay: physchem
metric: pKa

INSERT INTO assay_data (compound, experimental_result) VALUES
  ('C[C@@H]1CN(c2c(F)c(N)c3c(=O)c(C(=O)O)cn(C4CC4)c3c2F)C[C@H](C)N1', 9.38),
  ('COc1c(N2CCNC(C)C2)c(F)cc2c(=O)c(C(=O)O)cn(C3CC3)c12 (centres undefined)', 9.82),
  ('N[C@@H]1[C@H]2CN(c3nc4c(cc3F)c(=O)c(C(=O)O)cn4-c3ccc(F)cc3F)C[C@@H]12', 8.02),
  ('CCn1cc(C(=O)O)c(=O)c2cc(F)c(N3CCN(C)CC3)cc21', 9.97);
